Experiment: Pharmacokinetic drug-drug interaction study in rats after oral administration
Type: in vivo, SD (Sprague-Dawley) rats
Settings: male, Sprague-Dawley, rat, plasma, po, 4 mg/kg, rat plasma, TEL 4 mg/kg oral, alone
Excerpt: SPF (specific pathogen free)-grade male SD (Sprague-Dawley) rats (weight: 230 ± 10 g) were purchased from Beijing Weitong Lihua Experimental Animal Technology Co. Ltd. (Beijing, China). Before starting the experiment, the rats were given sufficient food and water and kept under suitable conditions for one week. […] The main pharmacokinetic parameters are presented as mean ± standard deviation and statistically analyzed using SPSS 25.0 software package (SPSS Inc., Chicago, IL, USA). […]
MEASURED_ENDPOINT: AUC(0-inf) (ng·h/mL)
Form entry: value (ng·h/mL) — number only.

Look up AUC(0-inf) for this molecule: CCCc1nc2c(C)cc(-c3nc4ccccc4n3C)cc2n1Cc1ccc(-c2ccccc2C(=O)O)cc1 [TEL, Telmisartan]
4180

====

Assay: Pharmacokinetic drug-drug interaction study in rats after oral administration
Format: in vivo, SD (Sprague-Dawley) rats
Settings: male, Sprague-Dawley, rat, plasma, po, 4 mg/kg, rat plasma, TEL 4 mg/kg oral, with LEN (1.2 mg/kg)
MEASURED_ENDPOINT: AUC(0-inf) (ng·h/mL)
Form entry: value (ng·h/mL) — number only.

Look up AUC(0-inf) for this molecule: CCCc1nc2c(C)cc(-c3nc4ccccc4n3C)cc2n1Cc1ccc(-c2ccccc2C(=O)O)cc1
2460

====

Test: Pharmacokinetic drug-drug interaction study in rats after oral administration
Format: in vivo, SD (Sprague-Dawley) rats
Conditions: male, Sprague-Dawley, rat, plasma, po, 1.2 mg/kg, rat plasma, LEN 1.2 mg/kg oral, alone
MEASURED_ENDPOINT: Cmax (ng/mL)
Form entry: value (ng/mL) — number only.

Look up Cmax for this compound: COc1cc2nccc(Oc3ccc(NC(=O)NC4CC4)c(Cl)c3)c2cc1C(N)=O [LEN, Lenvatinib]
498

====

Assay: Pharmacokinetic drug-drug interaction study in rats after oral administration
Assay type: in vivo, SD (Sprague-Dawley) rats
Settings: male, Sprague-Dawley, rat, plasma, po, 1.2 mg/kg, rat plasma, LEN 1.2 mg/kg oral, with TEL (4 mg/kg)
MEASURED_ENDPOINT: AUC(0-t) (ng·h/mL)
Form entry: value (ng·h/mL) — number only.

Look up AUC(0-t) for this compound: COc1cc2nccc(Oc3ccc(NC(=O)NC4CC4)c(Cl)c3)c2cc1C(N)=O
5860

====

Experiment: Pharmacokinetic drug-drug interaction study in rats after oral administration
Format: in vivo, SD (Sprague-Dawley) rats
Conditions: male, Sprague-Dawley, rat, plasma, po, 1.2 mg/kg, rat plasma, LEN 1.2 mg/kg oral, with TEL (4 mg/kg); read-out: t1/2z (converted)
Excerpt: SPF (specific pathogen free)-grade male SD (Sprague-Dawley) rats (weight: 230 ± 10 g) were purchased from Beijing Weitong Lihua Experimental Animal Technology Co. Ltd. (Beijing, China). Before starting the experiment, the rats were given sufficient food and water and kept under suitable conditions for one week. […] The main pharmacokinetic parameters are presented as mean ± standard deviation and statistically analyzed using SPSS 25.0 software package (SPSS Inc., Chicago, IL, USA). […]
MEASURED_ENDPOINT: half-life (h)
Form entry: value (h) — number only.

Look up half-life for this compound: COc1cc2nccc(Oc3ccc(NC(=O)NC4CC4)c(Cl)c3)c2cc1C(N)=O
9.32
